System: Coxsackievirus B4
Assay: Antiviral activity against Coxsackievirus B4
Type: functional, organism-based
Details: Enterovirus B
OBSERVATION TYPE: EC50 (µM)
Answers are plain numbers, in µM.

Ask: Query (compound): COc1cc(NC(C)CCCNC(=O)/C=C/C(=O)Nc2cccc(C(F)(F)F)c2)c2ncccc2c1 (stereo unspecified) ; field requested: EC50
Result: 3.1
